Ref: the supplement of paper PMC8728848

Target: Fuc(a1-3)[Gal(b1-4)]GlcNAc
Test: glycan array binding signal (z-score within array); higher = stronger binding
Conditions: glycan notation: IUPAC condensed, linker removed
The full list was thinned out, with the strongest signals kept by preference.
Please provide measured glycan array binding signal (z-score) for the entries that follow.
Answer with the value's number alone.

Recorded glycan array binding signal (z-score) (binder MGL1 (Mus musculus), P49300 (protein) MIYENLQNSRIEEKTQEPGKAPSQSFLWRILSWTHLLLFSLGLSLLLLVVVSVIGSQNSQLRRDLGTLRATLDNTTSKIKAEFQSLDSRADSFEKGISSLKVDVEDHRQELQAGRDLSQKVTSLESTVEKREQALKTDLSDLTDHVQQLRKDLKALTCQLANLKNNGSEVACCPLHWTEHEGSCYWFSESEKSWPEADKYCRLENSHLVVVNSLEEQNFLQNRLANVVSWIGLTDQNGPWRWVDGTDFEKGFKNWAPLQPDNWFGHGLGGGEDCAHITTGGPWNDDVCQRTFRWICEMKLAKES ): 5.46

Recorded glycan array binding signal (z-score) (binder Threefoil (Haloarcula marismortui) (protein) GSSHHHHHHHHHHSSGLVPRGSHMGDGYYKLVARHSGKALDVENASTSDGANVIQYSYSGGDNQQWRLVDLGDGYYKLVARHSGKALDVENASTSDGANVIQYSYSGGDNQQWRLVDLGDGYYKLVARHSGKALDVENASTSDGANVIQYSYSGGDNQQWRLVDL ): -0.151

Recorded glycan array binding signal (z-score) (binder DC-ASGPR-short (Homo sapiens) (protein) MTRTYENFQYLENKVKVQGFKNGPLPLQSLLQRLRSGPCHLLLSLGLGLLLLVIICVVGFQNSKFQRDLVTLRTDFSNFTSNTVAEIQALTSQGSSLEETIASLKAEVEGFKQERQAVHSEMLLRVQQLVQDLKKLTCQVATLNNNASTEGTCCPVNWVEHQDSCYWFSHSGMSWAEAEKYCQLKNAHLVVINSREEQNFVQKYLGSAYTWMGLSDPEGAWKWVDGTDYATGFQNWKPGQPDDWQGHGLGGGEDCAHFHPDGRWNDDVCQRPYHWVCEAGLGQTSQESH ): -0.28

Recorded glycan array binding signal (z-score) (binder Nc3LysM-2 (protein) AHVLQARQSVSCDFATAANTGDTCASFAAAWGITEAAFAKLNPGVSCPGNLIAGSEYCVIGTVSTGAPTTTKAATTSTTPPTTTTTTKATTLSTSTTSVSPTGPSPQMPSITSTCNKFYQVQSGDGCWSIEQAQGVSASDFMAWNKAVDAQCDNLWLGYYVCVGVKGGSSPPPTTTTKPASSSAPTPQMPNTVSNCKKFHKVVSGDGCWAIEQAAGISASDFAKWNPYVDAACDNLWLGYYVCIGV ): -0.073

Recorded glycan array binding signal (z-score) (binder Gal 4 (Canis lupus) (protein) MAYVPAPGYQPTYNPTLPYNKPIPGGLSVGMSVYIQGITSEHMRRFCVNFVAGAHPGSDIAFHFNPRFDGWDKVVFNSHLGGKWGSEEKKRSMPFRKGTHFELVFMVLAEHYKVVVNGNPFYEFGHRLPLQLVTHLQVEGDVELQSINFIGGTQPLGQGPGHTQQQPSSLPTMEGPPVFNPPVPFRKRLQGGLTVRRTVIIKGFVPFTSKSFVINFMVESSGDLALHINPRLTEGLVVRNSCLNGSWGSEDRKLSYNPFIPGQFFDLSIRCGMDRFKVYANGQHLFDFSHRLLALQNVDMLEINGDVTLSYIQV ): -0.151
